target: T1, mouse ventricular myosin light chain 1, GlySer(His)6 tag (mouse, UniProt P09542 1-204); test: BIAcore, vMLC-1 immobilised
T1 construct: also called mouse vMLC-1
T1 sequence (P09542 other isoform, or with tags, fused parts or gaps): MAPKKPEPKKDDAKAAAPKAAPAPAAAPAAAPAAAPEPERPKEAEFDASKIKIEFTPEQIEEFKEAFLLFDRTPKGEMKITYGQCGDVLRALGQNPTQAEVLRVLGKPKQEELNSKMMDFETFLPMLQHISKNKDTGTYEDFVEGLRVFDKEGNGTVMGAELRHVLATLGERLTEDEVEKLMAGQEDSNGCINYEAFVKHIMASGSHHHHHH
Exercise: for every item that follows, state its recorded koff.
State just the number; it will be interpreted in s⁻¹.

Form field: reported koff of humanised 39-15 mAb 4-1:1-8 (antibody, V domains shown) VH: QVQLVQSGAEVKKPGASVKVSCKASGYTFTTYWIHWVRQATGQGLEWMGAIYPGDGDTRYTQNFKDRVTMTRNTSISTAYMELSSLRSEDTAVYYCAREGTPPFTTATFAMAYWGQGTLVTVSS VL: DIVMTQSPDSLAVSLGERATINCKSSQSLLYSRTRKNYLAWYQQKPGQPPKLLIYWASTRQSGVPDRFSGSGSGTDFTLTISSLQAEDVAVYYCKQSYNLFTFGQGTKLEIKR
7.78e-05

What value of koff has been reported for the following binder? humanised 39-15 mAb 4-1:5-51 (antibody, human IgG1, kappa, V domains shown, human IgG1 kappa) VH: EVQLVQSGAEVKKPGESLKISCKGSGYSFTTYWIHWVRQMPGKGLEWMGAIYPGDGDTRYTQNFKDQVTISADKSISTAYLQWSSLKASDTAMYYCAREGTPPFTTATFAMAYWGQGTLVTVSS VL: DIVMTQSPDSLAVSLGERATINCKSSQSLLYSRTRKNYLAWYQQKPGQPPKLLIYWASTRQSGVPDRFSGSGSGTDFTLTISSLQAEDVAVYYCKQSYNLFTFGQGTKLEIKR
2.16e-05

Look up koff for this binder: humanised 39-15 mAb 1-39:1-3 (antibody, V domains shown) VH: QVQLVQSGAEVKKPGASVKVSCKASGYTFTTYWIHWVRQAPGQRLEWMGAIYPGDGDTRYTQNFKDRVTITRDTSASTAYMELSSLRSEDMAVYYCAREGTPPFTTATFAMAYWGQGTLVTVSS VL: DIQMTQSPSSLSASVGDRVTITCKSSQSLLYSRTRKNYLAWYQQKPGKAPKLLIYWASTRQSGVPSRFSGSGSGTDFTLTISSLQPEDFATYYCKQSYNLFTFGQGTKLEIKR
8.8e-05

Field request: koff | item: humanised 39-15 mAb 4-1:1-46 (antibody, human IgG1, V domains shown, human IgG1 kappa) VH: QVQLVQSGAEVKKPGASVKVSCKASGYTFTTYWIHWVRQAPGQGLEWMGAIYPGDGDTRYTQNFKDRVTMTRDTSTSTVYMELSSLRSEDTAVYYCAREGTPPFTTATFAMAYWGQGTLVTVSS VL: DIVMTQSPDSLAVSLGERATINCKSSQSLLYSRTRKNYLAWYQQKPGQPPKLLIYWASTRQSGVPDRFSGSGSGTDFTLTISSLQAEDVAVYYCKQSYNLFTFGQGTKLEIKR
7.65e-05

Dear colleague, I am looking for the recorded koff of the following binder: humanised 39-15 mAb 1-39:1-46 (antibody, V domains shown) VH: QVQLVQSGAEVKKPGASVKVSCKASGYTFTTYWIHWVRQAPGQGLEWMGAIYPGDGDTRYTQNFKDRVTMTRDTSTSTVYMELSSLRSEDTAVYYCAREGTPPFTTATFAMAYWGQGTLVTVSS VL: DIQMTQSPSSLSASVGDRVTITCKSSQSLLYSRTRKNYLAWYQQKPGKAPKLLIYWASTRQSGVPSRFSGSGSGTDFTLTISSLQPEDFATYYCKQSYNLFTFGQGTKLEIKR
0.000122

For humanised 39-15 mAb 4-1:1-3 (antibody, human IgG1, kappa, V domains shown, human IgG1 kappa) VH: QVQLVQSGAEVKKPGASVKVSCKASGYTFTTYWIHWVRQAPGQRLEWMGAIYPGDGDTRYTQNFKDRVTITRDTSASTAYMELSSLRSEDMAVYYCAREGTPPFTTATFAMAYWGQGTLVTVSS VL: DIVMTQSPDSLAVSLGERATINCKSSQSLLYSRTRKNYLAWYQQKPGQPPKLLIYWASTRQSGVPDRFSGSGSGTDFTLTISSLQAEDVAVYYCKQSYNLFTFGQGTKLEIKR , what is its reported koff?
6.6e-05
